Every entry's value here was drawn from paper PMC8036666.

ASSAY_NAME: Lipopeptide hydrophobicity by RP-HPLC (adjusted retention time)
Format: physicochemical
SETUP_CONDITIONS: RP-HPLC, 20–65% acetonitrile over 30 min, indicator of hydrophobicity
Where a SMILES comes first, the peptide text is derived from it. Side-chain parts run from the residue outwards. The star is where a group is joined. Myristoyl = CCCCCCCCCCCCCC(=O)*; Lauroyl = CCCCCCCCCCCC(=O)*
Quick reference for Adjusted Retention Time among some molecules
MEASURED_ENDPOINT: Adjusted Retention Time (min)

MOLECULE | UNIT_SYMBOL | READING
CCCCCCCCCCCCCC(=O)N[C@@H](CCCNC(=N)N)C(=O)N[C@@H](CCCNC(=N)N)C(=O)NCCCC[C@H](NC(=O)[C@H](CCCNC(=N)N)NC(=O)[C@H](CCCNC(=N)N)NC(=O)CCCCCCCCCCCCC)C(N)=O [Compound B4] (Myristoyl-Arg-Arg-Lys([Arg-Arg-Myristoyl])-NH2) | min | 25.33
CCCCCCCCCCCC(=O)N[C@@H](CCCNC(=N)N)C(=O)N[C@@H](CCCNC(=N)N)C(N)=O [Compound A3, C12-RR-NH2] (Lauroyl-Arg-Arg-NH2) | min | 12.15

---

Test system: C. glabrata ATCC 15126
SETUP_CONDITIONS: ATCC 15126, 24 h
Where a SMILES comes first, the peptide text is derived from it. Bridges are numbered along the chain shown (N, C = ends). Roman numbers before positions name the chains, in order. Side-chain parts run from the residue outwards. [ ]: non-standard residue; d: D form. The star is where a group is joined. Myristoyl = CCCCCCCCCCCCCC(=O)*; Lauroyl = CCCCCCCCCCCC(=O)*; Decanoyl = CCCCCCCCCC(=O)*; Nle = CCCC[C@H](N)C(=O)O; Octanoyl = CCCCCCCC(=O)*
MEASURED_ENDPOINT: MIC C. glabrata ATCC 15126

COMPOUND | MEASURED_ON | MEASURED_ENDPOINT | READING
CCCCCCCCCCCCCC(=O)N[C@@H](CCCNC(=N)N)C(=O)N[C@@H](CCCNC(=N)N)C(=O)NCCCC[C@H](NC(=O)[C@H](CCCNC(=N)N)NC(=O)[C@H](CCCNC(=N)N)NC(=O)CCCCCCCCCCCCC)C(N)=O [Compound B4] (Myristoyl-Arg-Arg-Lys([Arg-Arg-Myristoyl])-NH2) | C. glabrata ATCC 15126 | MIC C. glabrata ATCC 15126 | 2 µg/mL
CCCCCCCCCCCC(=O)N[C@@H](CCCNC(=N)N)C(=O)N[C@@H](CCCNC(=N)N)C(=O)N[C@@H](CSSC[C@H](NC(=O)[C@H](CCCNC(=N)N)NC(=O)[C@H](CCCNC(=N)N)NC(=O)CCCCCCCCCCC)C(N)=O)C(N)=O [Compound C3] (I: Lauroyl-Arg-Arg-Cys-NH2 / II: Lauroyl-Arg-Arg-Cys-NH2; disulfide I:3-II:3) | C. glabrata ATCC 15126 | MIC C. glabrata ATCC 15126 | 2 µg/mL
CCCCCCCCCC(=O)N[C@@H](CCCNC(=N)N)C(=O)N[C@@H](CCCNC(=N)N)C(=O)N[C@@H](CSSC[C@H](NC(=O)[C@H](CCCNC(=N)N)NC(=O)[C@H](CCCNC(=N)N)NC(=O)CCCCCCCCC)C(N)=O)C(N)=O [Compound C2] (I: Decanoyl-Arg-Arg-Cys-NH2 / II: Decanoyl-Arg-Arg-Cys-NH2; disulfide I:3-II:3) | C. glabrata ATCC 15126 | MIC C. glabrata ATCC 15126 | 8 µg/mL
CCCCCCC(CCCC)C(=O)N[C@@H](CCCNC(=N)N)C(=O)N[C@@H](CCCNC(=N)N)C(=O)NCCCC[C@H](NC(=O)[C@H](CCCNC(=N)N)NC(=O)[C@H](CCCNC(=N)N)NC(=O)C(CCCC)CCCCCC)C(N)=O (stereo partly shown) | C. glabrata ATCC 15126 | MIC C. glabrata ATCC 15126 | 16 µg/mL
CCCCCCCCCCCCCC(=O)N[C@@H](CCCNC(=N)N)C(=O)N[C@@H](CCCNC(=N)N)C(N)=O [Compound A4, C14-RR-NH2] (Myristoyl-Arg-Arg-NH2) | C. glabrata ATCC 15126 | MIC C. glabrata ATCC 15126 | 16 µg/mL
CCCCCCCCCC(=O)N[C@@H](CCCNC(=N)N)C(=O)N[C@@H](CCCNC(=N)N)C(=O)NCCCC[C@H](NC(=O)[C@H](CCCNC(=N)N)NC(=O)[C@H](CCCNC(=N)N)NC(=O)CCCCCCCCC)C(N)=O [Compound B2] (Decanoyl-Arg-Arg-Lys([Arg-Arg-Decanoyl])-NH2) | C. glabrata ATCC 15126 | MIC C. glabrata ATCC 15126 | 4 µg/mL
CCCCCCCC(=O)N[C@@H](CCCC)C(=O)N[C@@H](CCCNC(=N)N)C(=O)N[C@@H](CCCNC(=N)N)C(=O)N[C@@H](CSSC[C@H](NC(=O)[C@H](CCCNC(=N)N)NC(=O)[C@H](CCCNC(=N)N)NC(=O)[C@H](CCCC)NC(=O)CCCCCCC)C(N)=O)C(N)=O [Compound C6] (I: Octanoyl-[Nle]RRC-NH2 / II: Octanoyl-[Nle]RRC-NH2; disulfide I:4-II:4) | C. glabrata ATCC 15126 | MIC C. glabrata ATCC 15126 | 16 µg/mL
